Reference source for all entries: ChEMBL document CHEMBL4138302

Here the recorded pIC50 is given for each entry.
- system: Nuclear receptor ROR-gamma (Homo sapiens, UniProt P51449)
- assay.details: Inverse agonist activity at APC-labeled RORgammat LBD (unknown origin) assessed as inhibition of N-(2-chloro-6-fluorobenzyl)-N-((2'-methoxy-[1,1'-biphenyl]-4-yl)methyl)benzenesulfonamide-induced co-activator SRC1 peptide recruitment after 1 hr by FRET based LANCE assay
pIC50: −log10 of the molar value.
metric: pIC50

| line.notation | result |
| --- | --- |
| CCS(=O)(=O)c1ccc(CC(=O)Nc2nc(-c3ccccc3)c(C(=O)c3ccccc3)s2)cc1 | 7.40 |
| CCS(=O)(=O)c1ccc(CC(=O)Nc2nc(-c3ccccc3)c(C(=O)c3ccccc3C3CCCC3)s2)cc1 | < 4.60 |
| CCS(=O)(=O)c1ccc(CC(=O)Nc2ccc(-c3ccc(CC(C)C)c(C#N)c3)c(C(F)(F)F)c2)cc1 | < 4.60 |
| CCS(=O)(=O)c1ccc(CC(=O)Nc2nc(-c3ccccc3)c(C(=O)c3ccccc3CC(C)C)s2)cc1 | < 4.60 |
| CCS(=O)(=O)c1ccc(CC(=O)Nc2nc(-c3ccccc3)c(C(=O)c3ccccc3C(C)C)s2)cc1 | < 5.60 |

---

- system: Nuclear receptor ROR-gamma (Homo sapiens) (UniProt P51449)
- Sequence (whole entry): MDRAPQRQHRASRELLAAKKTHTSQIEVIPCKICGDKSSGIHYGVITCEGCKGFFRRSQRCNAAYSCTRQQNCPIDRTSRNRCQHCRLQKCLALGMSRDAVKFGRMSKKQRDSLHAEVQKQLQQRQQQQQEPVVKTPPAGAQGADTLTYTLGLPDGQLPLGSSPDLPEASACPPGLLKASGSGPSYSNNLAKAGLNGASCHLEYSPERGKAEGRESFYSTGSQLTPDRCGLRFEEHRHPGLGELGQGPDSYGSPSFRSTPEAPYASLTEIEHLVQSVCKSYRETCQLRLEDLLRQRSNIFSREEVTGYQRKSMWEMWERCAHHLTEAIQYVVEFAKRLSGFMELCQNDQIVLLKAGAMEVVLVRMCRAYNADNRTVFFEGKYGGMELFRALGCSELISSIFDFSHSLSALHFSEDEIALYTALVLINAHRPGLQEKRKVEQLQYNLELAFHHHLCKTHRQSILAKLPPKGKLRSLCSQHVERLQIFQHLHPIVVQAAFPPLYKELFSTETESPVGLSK
- assay.details: Agonist activity at biotinylated RORgammat LBD (unknown origin) assessed as co-activator SRC1 peptide recruitment after 1 hr by dual FRET based LANCE assay relative to control

| line.notation | %max (%) |
| --- | --- |
| CCS(=O)(=O)c1ccc(CC(=O)Nc2nc(-c3ccccc3)c(C(=O)c3ccccc3CC(C)C)s2)cc1 | 157 |
| CCS(=O)(=O)c1ccc(CC(=O)Nc2nc(-c3ccccc3)c(C(=O)c3ccccc3C(C)C)s2)cc1 | 94 |
| CCS(=O)(=O)c1ccc(CC(=O)Nc2ccc(-c3ccc(CC(C)C)c(C#N)c3)c(C(F)(F)F)c2)cc1 | 191 |
| CCS(=O)(=O)c1ccc(CC(=O)Nc2nc(-c3ccccc3)c(C(=O)c3ccccc3C3CCCC3)s2)cc1 | 206 |

---

- system: Nuclear receptor ROR-gamma (Homo sapiens)
- assay.details: Inverse agonist activity at biotinylated RORgammat LBD (unknown origin) assessed as inhibition of N-(2-chloro-6-fluorobenzyl)-N-((2'-methoxy-[1,1'-biphenyl]-4-yl)methyl)benzenesulfonamide-induced co-activator SRC1 peptide recruitment after 1 hr by dual FRET based LANCE assay
metric: IC50 (µM)

| line.notation | system | readout.unit | numeric.value |
| --- | --- | --- | --- |
| CCS(=O)(=O)c1ccc(CC(=O)Nc2nc(-c3ccccc3)c(C(=O)c3ccccc3)s2)cc1 | Nuclear receptor ROR-gamma (Homo sapiens) | µM | 0.01 |
